Sourced from PubChem BioAssay (NCI)

Could you please report measured growth for the items listed next?
- Test system: DU-145 prostate
- protocol: NCI-60 one-dose screen, 48 h (100 = growth as untreated, 0 = no growth, -100 = all killed)
- studyConditions: 10 µM unless noted
This is part of a sample that, as a whole, favours compounds with a hit. Of some 83,000 tested, about 20% had one in any assay.
One number for each entry, in %.

Examples with answers:
COc1ccc2nc(NC(=O)COc3cc(/C=C\c4cc(OC)c(OC)c(OC)c4)ccc3OC)sc2c1 = 0.406
CCOC(=O)c1c(C)n(Cc2ccccc2)c2cc(CN(C)C)c(O)cc12 = 79.9
CC(C)(C)C(=O)OCOP(=O)(OCOC(=O)C(C)(C)C)C1CCCN(O)C1=O (stereo not given) = 20
CC(=O)Nc1ccc(NC(=O)c2ccc([As](O)O)cc2)cc1 = 108

Shifting focus to the compound that follows.
Recorded growth for C#C[C@]1(OC(=O)CCCCCC)CC[C@H]2[C@@H]3CCC4=CC(=O)CC[C@@H]4[C@H]3CC[C@@]21C , please? 72.1

###

- Test system: DU-145 prostate
- protocol: NCI-60 one-dose screen, 48 h
- studyConditions: 10 µM unless noted
Compounds without any hit were thinned out: in the full panel of roughly 83,000, 20% have a hit. The source made the active and inactive calls. The calls were made as follows: active = growth percent below 10; inactive = the rest.
Give one outcome, nothing more. List: 1 = active, -1 = inactive

CN1C(=O)C23CC4(C56CC78SSC(CO)(C(=O)N7C5Nc5ccccc56)N(C)C8=O)c5ccccc5NC4N2C(=O)C1(CO)SS3 (stereo not given) = 1
CCC[CH2][Sn]([CH2]CCC)([CH2]CCC)[O]c1ccc(Cl)cc1Cl = 1
CCCCC1(CCC)C(=O)NC(=S)NC1=O = -1

What did the test return for O=[N+]([O-])c1cnc[nH]1 ? -1

What did the test return for CC(C)CCC(=O)O[C@H]1CC[C@H]2[C@@H]3CCC4=CC(=O)CC[C@]4(C)[C@H]3CC[C@]12C ? -1

What did the test return for CCC1CC(O)c2c(O)c3c(c(O)c2C1O)C(=O)c1cccc(O)c1C3=O (stereo not given) (tested in a mixture with another compound) ? 1

What did the test return for Cc1cnc(/C=C/C(=O)O)cc1-c1cc2c(cc1C)C(C)(C)CCC2(C)C ? -1

What did the test return for CC(C)(NC(=O)O[C@@H]1CN2CCC1CC2)c1csc(-c2ccc(F)cc2)n1 ? -1

What did the test return for CC[C@H](C)[C@H](NC(=O)N[C@@H](C)c1ccccc1)C(=O)N(C)[C@H](C[C@@H](OC(C)=O)c1nc(C(=O)N[C@@H](Cc2ccccc2)C[C@H](C)C(=O)OC)cs1)C(C)C ? 1

What did the test return for Clc1cccc(NCOOC2(OOCNc3cccc(Cl)c3)CCCCCC2)c1 ? -1

What did the test return for O=C(NCCN1CC1)C(=O)NCCN1CC1 ? -1

What did the test return for COc1cc(/C=N/C2=C(C#N)C(c3ccco3)c3c(c4cc(C)ccc4oc3=O)O2)cc(OC)c1OC (stereo not given) ? -1

What did the test return for Cc1ccc(S(=O)(=O)C(Cl)(Cl)Cl)cc1 ? -1

What did the test return for O[C@H](CN1CC1)[C@@H](O)CN1CC1 ? -1

What did the test return for C[C@]12CC[C@H]3[C@@H](C[C@@H]4SC(Nc5ccccc5)=N[C@@]45CC(O)CC[C@]35C)[C@@H]1CCC2O (stereo not given in full) ? -1

What did the test return for C=COC(=O)CCN1CC1 ? -1

What did the test return for COc1ccc(C(O)(C(=O)O)c2ccc(OC)cc2)cc1 ? -1

What did the test return for Cc1cccc(N2CCN(C(C)C#N)CC2)c1 (stereo not given) ? -1

What did the test return for CN1C(=O)C(=Cc2cn(Cc3ccccc3)c3ccccc23)C(=O)N(C)C1=O ? -1

What did the test return for C[Se]C(=O)c1ccccc1OC(C)=O ? -1

###

- Tested on: KM12 colon
- protocol: NCI-60 one-dose screen, 48 h
- studyConditions: 10 µM unless noted
The panel holds about 83,000 compounds, 20% with a hit somewhere; the sample as a whole holds those more often. Calls of active or inactive are those of the source. How the source made its calls: active means growth percent below 10; inactive means the rest.
Give one outcome, nothing more. List: true (1) for active, false (0) for inactive

Completed entries (count: 5):
C/C(=C\c1ccn(-c2ccccc2N)n1)[C@@H]1C[C@@H]2O[C@]2(C)CCC[C@H](C)[C@H](O)[C@@H](C)C(=O)C(C)(C)[C@@H](O)CC(=O)O1 = false (0)
COC(=O)[C@H](C[C@H](Cc1ccccc1)NC(=O)c1csc([C@@H](C[C@H](C(C)C)N(C)C(=O)[C@@H](NC(=O)[C@H]2CCCCN2C)C(C)C)OC(C)=O)n1)NC(=O)OCc1ccccc1 = true (1)
COc1cc2c(cc1OCCCCCn1c(-c3ccco3)nc3ccccc31)N=C[C@@H]1CCCN1C2=O = true (1)
COC(=O)[C@@H](C)C[C@H](Cc1ccc(F)cc1)NC(=O)c1csc([C@@H](C[C@H](C(C)C)N(C)C(=O)[C@@H](NC(=O)[C@H]2CCCCN2C)C(C)C)OC(C)=O)n1 = false (0)
COP(=O)(OC)C(O)c1ccc(Cl)cc1 (stereo not given) = false (0)

What did the test return for CC[C@@H]1[C@@H](C)O[C@@](O)([C@@H](C)[C@H](O)[C@H](C)[C@H]2OC(=O)/C=C/C=C/[C@H](C)[C@@H]([C@@H](C)[C@@H](O)[C@H](C)[C@@]3(O)C[C@@H](O[C@H]4C[C@@H](O)[C@H](O)C(C)O4)[C@H](CC)[C@@H](C)O3)OC(=O)/C=C/C=C/[C@@H]2C)C[C@H]1O[C@@H]1C[C@@H](O)[C@H](O)C(C)O1 (stereo not given in full) ? true (1)

What did the test return for CC(=O)O[C@H]1CC[C@]2(C)[C@H]3CC[C@]4(C)[C@@H](OC(C)=O)CC[C@H]4[C@@H]3[C@@H](C)[C@]2(O)C1 ? false (0)

What did the test return for CCOC(=O)[C@@H](C)C[C@H](Cc1ccccc1)NC(=O)c1nc([C@@H](C[C@H](C(C)C)N(C)C(=O)[C@@H](NC(=O)[C@H]2CCCCN2C)C(C)C)OC(C)=O)sc1CCOCc1ccccc1 ? true (1)

What did the test return for COc1ccc(N(CC(=O)NCCC[Te]c2ccccc2)C(=O)CCSC2=C(C)C(=O)c3ccccc3C2=O)cc1 ? true (1)

What did the test return for CN1C(=O)C(=Cc2cn(CCCCCCn3c4ccccc4c(=O)c4ccccc43)c3ccccc23)C(=O)N(C)C1=O ? false (0)

What did the test return for Fc1ccc(N2COOC3(OOC2)C2CC4CC(C2)CC3C4)cc1 ? false (0)

What did the test return for CCCCN1CCCC[C@@H]1C(=O)N[C@H](C(=O)N(C)[C@H](C[C@@H](OC(C)=O)c1nc(C(=O)NC2CCC(C(=O)OC)CC2)cs1)C(C)C)C(C)C (stereo not given in full) ? false (0)

What did the test return for Clc1ccc2nnnn2n1 ? true (1)

What did the test return for CNC12C3C4C1C1C2C3C41C(=O)N[C@H](C(=O)N(C)[C@H](C[C@@H](OC(C)=O)c1nc(C(=O)N[C@@H](Cc2ccccc2)C[C@H](C)C(=O)OC)cs1)C(C)C)C1CC1 (stereo not given in full) ? true (1)

What did the test return for Cc1cc(N(CCCl)CCCl)ccc1C=Nc1ccc(-c2csc(Cc3ccccc3)n2)cc1 ? false (0)

What did the test return for C=CC[Se]C(=O)c1ccccc1OC(C)=O ? true (1)

What did the test return for CC(C)=CCC/C(C)=C/C=N\N=C(/N)N[N+](=O)[O-] ? false (0)

What did the test return for CS(=O)(=O)CCN1CC2CCCC(C2)C1 ? false (0)

What did the test return for CN1CC(CNC(=O)OCc2ccccc2)CC2c3cccc4c3c(cn4C)CC21 (stereo not given) ? false (0)

What did the test return for CN(C)CCCOc1ccc2c(c1)c(C(=O)C(=O)NCCO)cn2Cc1ccccc1 ? false (0)

###

- System: SF-539 CNS
- protocol: NCI-60 one-dose screen, 48 h
- studyConditions: 10 µM unless noted
Compounds without any hit were thinned out: in the full panel of roughly 83,000, 20% have a hit. The source made the active and inactive calls. Rule for the calls: active = growth percent below 10; inactive = the rest.
Give one outcome, nothing more. List: T (active), F (inactive)

CCCCCCCCCCCCCCCCCC1OC[C@H](COC(=O)O[C@@H](C(=O)O[C@H]2C[C@@]3(O)[C@@H](OC(=O)c4ccccc4)[C@@H]4[C@]5(OC(C)=O)CO[C@@H]5C[C@H](O)[C@@]4(C)C(=O)[C@H](OC(C)=O)C(=C2C)C3(C)C)[C@@H](NC(=O)c2ccccc2)c2ccccc2)O1 (stereo partly specified) = F
C/C(=C\c1ccn(-c2ccc(N)c(F)c2)n1)[C@@H]1C[C@@H]2O[C@]2(C)CCC[C@H](C)[C@H](O)[C@@H](C)C(=O)C(C)(C)[C@@H](O)CC(=O)O1 = T

What did the test return for COC(=O)[C@@H](C)C[C@H](Cc1ccc(F)cc1)NC(=O)c1csc([C@@H](C[C@H](C(C)C)N(C)C(=O)[C@@H](NC(=O)[C@H]2CCCCN2C)C(C)C)OC(C)=O)n1 ? T

What did the test return for COC(=O)C1CCC(NC(=O)c2csc([C@@H](C[C@H](C(C)C)N(C)C(=O)[C@@H](NC(=O)[C@H]3CCCCN3C)C(C)C)OC(C)=O)n2)CC1 (stereo partly specified) ? T

What did the test return for O=[N+]([O-])/C=C\c1ccc(Cl)c(Cl)c1 ? F

What did the test return for O=C(Nc1ccc([N+](=O)[O-])cc1)C(Cl)(Cl)Cl ? F
